System: LAN5
Assay: Cell viability, CellTiter Glo Assay, LAN5
Format: cell-based
Settings: LA-N-5; LAN5, neuroblastoma bone metastasis cell line; read-out: Effect of AOH39 on Cell Viability IC50
Protocol: The IC50's listed in Table 1 and in FIGS. 8 and 9 were determined by monitoring cell proliferation in the absence or presence of increasing concentrations of AOH39 using the Cell-Titer Glo Assay, (Promega Inc., Madison, Wis.) which monitors the energy status of the entire culture and the viability of the cell population. (https://www.promega.com/products/cell-health-and-metabolismicell-viability-assaysicelltiter_glo-luminescent-cell-viability-assay/). […]

compound	IC50 [nM]
O=C(CNC(=O)c1cccc2ccccc12)Nc1ccccc1Cc1ccccc1 [AOH39]	1200

====

Test system: MCF7
Experiment: Cell viability, CellTiter Glo Assay, MCF7
Assay type: cell-based
Details: Homo sapiens; MCF7, ER+ breast cancer cell line; read-out: Effect of AOH39 on Cell Viability IC50
pIC50: −log10 of the molar value.

structure smiles	pIC50
O=C(CNC(=O)c1cccc2ccccc12)Nc1ccccc1Cc1ccccc1	5.51

====

Tested on: SK-N-AS
Assay: Cell viability, CellTiter Glo Assay, SK-N-AS
Type: cell-based
Settings: Homo sapiens, neuroblastoma cell line, read-out: Effect of AOH39 on Cell Viability IC50
Experimental: The IC50's listed in Table 1 and in FIGS. 8 and 9 were determined by monitoring cell proliferation in the absence or presence of increasing concentrations of AOH39 using the Cell-Titer Glo Assay, (Promega Inc., Madison, Wis.) which monitors the energy status of the entire culture and the viability of the cell population. (https://www.promega.com/products/cell-health-and-metabolismicell-viability-assaysicelltiter_glo-luminescent-cell-viability-assay/). […]

structure smiles	IC50
O=C(CNC(=O)c1cccc2ccccc12)Nc1ccccc1Cc1ccccc1	2200 nM
